Hello, the source for this data is the supplement of paper PMC9170038, in case you need it.

system: MS2 coat protein; experiment: apparent KD of MS2 coat protein, switch ON state; designed switch direction (-1 OFF switch, 1 ON switch): 1; higher = weaker reporter binding; settings: FMN input: 0 or 200 uM; Eterna round: R93 (includes R88 designs)

# Seq, apparent KD of MS2 coat protein, nM
measured = [
    ("AAAUAACAUGAGGAUCACCCAUGUUACAACAAUACAGGAUAUGUGGGUGAAAAUAGCAUGACAGAAGGGUAAUGUA [SameState1 Malc#32]", 239),
    ("AAAACACAUGAGGAUCACCCAUGUAUCUGGACCAUAGGAUAUCCGCACCCACUAAGGCGUGGAGAAGGGUGAGCCC [Antisoorti]", 160),
    ("UAGAGACAUGAGGAUCACCCAUGUAGGAUUAUGGGAGGAUAUACAAAGACGAGAGUCAGAGUAGAAGGCCUAGGAC [salish99-ss1-136(!)]", 21.4),
    ("AAAAAAAAAAGUCAGGAUAUACAAAUUUUUACAUGAGGAUCACCCAUGUUAAAGAAAAAAAAAAAGUAGAAGGGACAAAAAAAAAA [Same State 2 - Omei 2]", 11.1),
    ("AGGAAACAUGAGGAUCACCCAUGUAAGAUAUAUACAGGAUAUGCGAAAAGAAACAAAGAAGCAGAAGGGUAAAAAA [75%, Ex sub1, 13]", 18),
    ("AAAAAACAUGAGGAUCACCCAUGUAGAAACAUGGGAGGAUAUACGAAGACGAAAGUCAAAGUAGAAGGCCUAAGAA [Garnet 88]", 182),
    ("AAGAAACAUGAGGAUCACCCAUGUGAUAAUAUGGGAGGAUAUACAAAGACGAAAGACGAAGUAGAAGGCCUAAGAA [Garnet 47]", 56.3),
    ("AAAAAAAAAUCUCAGGAUAUAGAUUAUAGAACAUGAGGAUCACCCAUGUAGUGAAAGAAGAAAAACUAGAAGGGAGGAAAAAAAAA [Same State 2 #2]", 48.2),
    ("AGAAAUAAAAGAGAGGAUAUCCAAAAUAAAACAUGAGGAUCACCCAUGUGUACGAAAGUACAAUGGGAGAAGGCUCAAAAUAAAG [80% More Helter Skelter 2 + Hairpin]", 1280),
    ("CGGAGACAUGAGGAUCACCCAUGUGAGAAGAGGCGAGGAUAUCGAAAGAAAGAAGAGAAACGAGAAGGCGCGAGAU [salish99-SS1-069]", 20.4),
    ("GUGUAAAGAAUCGAGGAUAUCCUGAAAAGCACAUGAGGAUCACCCAUGUAAGAGCGAGAAUAAUGGGAGAAGGCGAGUUAUCGGU [JR_SS002_Sub1711]", 20.1),
    ("AUAAAACAUGAGGAUCACCCAUGUAGACACGAUGGAGGAUAUACUAGAUCGAAAGAUCUAGUAGAAGGCCGACGUA [Mat - Same State 1 - JL mod - D95]", 18.4),
]
